Test system: PPARg:RXRa DBDmut IVT, anti-RXR (DBD mutation: RXRa K156A/R161A, NR concentration 270 nM, RXRa partner concentration 90 nM)
ASSAY_REMARKS: PBM binding z-score (relative to random genomic background probes); higher = stronger binding; sequences stand for … in GC…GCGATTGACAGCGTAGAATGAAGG
What PBM binding z-score was measured for each of the following?
API note: the answer field is a bare number with no unit suffix.

sequence `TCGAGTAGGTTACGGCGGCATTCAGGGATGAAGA` , PBM binding z-score observed: 3.16

sequence `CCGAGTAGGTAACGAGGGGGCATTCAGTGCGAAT` , PBM binding z-score observed: 3.83

sequence `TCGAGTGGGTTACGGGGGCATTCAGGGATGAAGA` , PBM binding z-score observed: 4.62

sequence `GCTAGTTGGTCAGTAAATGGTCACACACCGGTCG` , PBM binding z-score observed: 0.302

sequence `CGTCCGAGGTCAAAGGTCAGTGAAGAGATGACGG` , PBM binding z-score observed: 4.36

sequence `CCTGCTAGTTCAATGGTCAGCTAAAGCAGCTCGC` , PBM binding z-score observed: 0.00571

sequence `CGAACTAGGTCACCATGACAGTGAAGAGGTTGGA` , PBM binding z-score observed: 7.11

sequence `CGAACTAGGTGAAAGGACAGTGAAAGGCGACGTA` , PBM binding z-score observed: 7.36

sequence `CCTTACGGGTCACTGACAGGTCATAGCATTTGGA` , PBM binding z-score observed: 3.69

sequence `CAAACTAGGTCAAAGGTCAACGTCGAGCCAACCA` , PBM binding z-score observed: 8.88

sequence `TCGAGTAGGTTACGTGGGCATTCAGGGATGAAGA` , PBM binding z-score observed: 3.11

sequence `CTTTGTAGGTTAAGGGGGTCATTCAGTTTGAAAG` , PBM binding z-score observed: 7.24

====

Test system: PPARg:RXRa DBDmut IVT, anti-RXR (DBD mutation: RXRa K156A/R161A, NR concentration 270 nM, RXRa partner concentration 90 nM)
ASSAY_REMARKS: PBM binding z-score (relative to random genomic background probes); higher = stronger binding; sequences stand for … in GC…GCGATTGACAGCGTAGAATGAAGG
What PBM binding z-score was measured for each of the following?
API note: the answer field is a bare number with no unit suffix.

sequence `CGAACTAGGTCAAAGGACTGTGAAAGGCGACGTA` , PBM binding z-score observed: 8.23

sequence `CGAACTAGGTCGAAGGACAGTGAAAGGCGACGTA` , PBM binding z-score observed: 4.92

sequence `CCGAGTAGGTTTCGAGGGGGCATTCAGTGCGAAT` , PBM binding z-score observed: 2.27

sequence `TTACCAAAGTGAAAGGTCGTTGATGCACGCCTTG` , PBM binding z-score observed: -0.147

sequence `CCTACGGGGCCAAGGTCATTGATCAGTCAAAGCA` , PBM binding z-score observed: 0.0794

sequence `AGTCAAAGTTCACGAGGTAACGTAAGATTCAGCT` , PBM binding z-score observed: 1.37

sequence `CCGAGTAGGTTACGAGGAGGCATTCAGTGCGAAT` , PBM binding z-score observed: 4.34

sequence `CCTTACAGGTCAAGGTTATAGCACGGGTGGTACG` , PBM binding z-score observed: 3.89

sequence `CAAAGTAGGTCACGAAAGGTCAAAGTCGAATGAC` , PBM binding z-score observed: 8.95

sequence `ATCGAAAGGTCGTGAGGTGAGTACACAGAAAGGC` , PBM binding z-score observed: 0.432

sequence `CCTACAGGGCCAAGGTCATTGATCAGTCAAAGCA` , PBM binding z-score observed: 0.158

sequence `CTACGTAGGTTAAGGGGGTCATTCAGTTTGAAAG` , PBM binding z-score observed: 2.95

sequence `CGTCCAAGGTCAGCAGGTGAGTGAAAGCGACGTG` , PBM binding z-score observed: 2.8

sequence `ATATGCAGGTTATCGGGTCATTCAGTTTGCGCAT` , PBM binding z-score observed: 4.84

sequence `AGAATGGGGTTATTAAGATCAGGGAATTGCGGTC` , PBM binding z-score observed: 3.63

sequence `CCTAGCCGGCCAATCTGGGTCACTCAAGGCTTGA` , PBM binding z-score observed: 3.39

sequence `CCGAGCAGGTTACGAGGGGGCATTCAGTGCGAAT` , PBM binding z-score observed: 1.69

sequence `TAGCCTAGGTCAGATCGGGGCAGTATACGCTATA` , PBM binding z-score observed: 1.23

sequence `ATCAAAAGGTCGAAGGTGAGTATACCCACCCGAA` , PBM binding z-score observed: 0.661

sequence `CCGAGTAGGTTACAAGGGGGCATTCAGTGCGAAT` , PBM binding z-score observed: 4.32

sequence `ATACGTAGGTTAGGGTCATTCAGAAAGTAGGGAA` , PBM binding z-score observed: 0.761

sequence `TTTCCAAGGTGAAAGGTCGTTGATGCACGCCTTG` , PBM binding z-score observed: 2.51

sequence `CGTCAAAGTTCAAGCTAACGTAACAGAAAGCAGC` , PBM binding z-score observed: 0.497

sequence `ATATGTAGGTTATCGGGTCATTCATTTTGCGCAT` , PBM binding z-score observed: 7.75

sequence `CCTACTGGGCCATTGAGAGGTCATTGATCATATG` , PBM binding z-score observed: 4.21

sequence `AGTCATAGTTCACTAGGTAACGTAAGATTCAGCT` , PBM binding z-score observed: 1.88

sequence `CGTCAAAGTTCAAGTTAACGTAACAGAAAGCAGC` , PBM binding z-score observed: 0.502

sequence `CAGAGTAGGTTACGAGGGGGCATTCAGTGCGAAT` , PBM binding z-score observed: 5.73

sequence `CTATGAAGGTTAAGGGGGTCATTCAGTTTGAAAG` , PBM binding z-score observed: 3.68

sequence `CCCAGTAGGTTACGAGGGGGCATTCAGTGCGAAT` , PBM binding z-score observed: 5.3

sequence `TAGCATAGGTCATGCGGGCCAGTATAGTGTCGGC` , PBM binding z-score observed: 1

sequence `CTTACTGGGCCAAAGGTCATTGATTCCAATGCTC` , PBM binding z-score observed: 7.41

sequence `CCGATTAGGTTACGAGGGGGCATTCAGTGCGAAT` , PBM binding z-score observed: 3.12

sequence `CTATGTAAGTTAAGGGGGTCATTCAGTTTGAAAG` , PBM binding z-score observed: 3.56

sequence `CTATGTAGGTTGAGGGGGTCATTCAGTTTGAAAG` , PBM binding z-score observed: 3.98

sequence `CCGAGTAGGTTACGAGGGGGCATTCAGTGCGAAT` , PBM binding z-score observed: 4.8

sequence `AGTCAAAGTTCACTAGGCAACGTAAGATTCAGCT` , PBM binding z-score observed: 1.55

sequence `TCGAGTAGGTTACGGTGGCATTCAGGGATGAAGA` , PBM binding z-score observed: 3.28

sequence `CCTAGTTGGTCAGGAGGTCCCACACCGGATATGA` , PBM binding z-score observed: 0.207

sequence `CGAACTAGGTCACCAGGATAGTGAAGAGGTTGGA` , PBM binding z-score observed: 8.36

sequence `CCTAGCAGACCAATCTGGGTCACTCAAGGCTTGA` , PBM binding z-score observed: 4.01

sequence `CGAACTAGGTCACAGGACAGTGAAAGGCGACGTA` , PBM binding z-score observed: 8.61

sequence `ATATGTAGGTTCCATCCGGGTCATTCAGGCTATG` , PBM binding z-score observed: 4.13

sequence `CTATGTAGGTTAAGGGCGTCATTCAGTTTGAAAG` , PBM binding z-score observed: 7.33

sequence `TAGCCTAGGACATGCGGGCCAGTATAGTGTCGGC` , PBM binding z-score observed: -0.985

sequence `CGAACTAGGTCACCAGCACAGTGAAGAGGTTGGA` , PBM binding z-score observed: 8.34

sequence `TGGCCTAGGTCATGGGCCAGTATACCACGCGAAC` , PBM binding z-score observed: 0.46

sequence `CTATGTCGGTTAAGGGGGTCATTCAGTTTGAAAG` , PBM binding z-score observed: 4.49

sequence `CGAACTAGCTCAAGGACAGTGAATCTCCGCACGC` , PBM binding z-score observed: 0.26

sequence `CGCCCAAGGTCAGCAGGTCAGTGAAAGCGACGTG` , PBM binding z-score observed: 2.94

sequence `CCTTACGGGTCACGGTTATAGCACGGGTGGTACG` , PBM binding z-score observed: 3
